FYI, the data here is from patent US20250250357A1.

# assayed-target: T1, human MSLN-R1-his protein (human, UniProt Q13421 296-390)
# T1 construct: Region 1 of human mesothelin, made in HEK293E cells, His-tagged; also called human MSLN-R1 protein; hMSLN-R1-his; not shown: His tag
# T1 chain: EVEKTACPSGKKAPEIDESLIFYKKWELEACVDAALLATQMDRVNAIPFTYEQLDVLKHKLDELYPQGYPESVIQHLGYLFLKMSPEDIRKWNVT
# procedure-text: ELISA on coated MSLN-R1; antibody 0.01 nM
endpoint: OD450 (OD450)
One number for each entry, in OD450.

S009-F8-9.16 (antibody, human IgG1, kappa, V domains shown) VH: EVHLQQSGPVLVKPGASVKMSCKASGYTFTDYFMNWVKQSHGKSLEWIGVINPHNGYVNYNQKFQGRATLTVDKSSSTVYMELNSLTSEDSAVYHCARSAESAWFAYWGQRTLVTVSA VL: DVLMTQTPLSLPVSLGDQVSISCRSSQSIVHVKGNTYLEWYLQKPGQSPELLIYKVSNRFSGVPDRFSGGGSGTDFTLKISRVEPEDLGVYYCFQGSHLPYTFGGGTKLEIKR: 0.04
S009-F8-13.8 (antibody, human IgG1, kappa, V domains shown) VH: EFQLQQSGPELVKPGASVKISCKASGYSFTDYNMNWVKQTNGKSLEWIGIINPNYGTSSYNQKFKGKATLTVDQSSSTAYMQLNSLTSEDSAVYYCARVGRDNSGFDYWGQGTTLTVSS VL: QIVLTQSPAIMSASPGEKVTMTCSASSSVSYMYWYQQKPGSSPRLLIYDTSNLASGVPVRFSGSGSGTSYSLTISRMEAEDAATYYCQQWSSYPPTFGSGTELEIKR: 0.28
S009-F8-24.14 (antibody, human IgG1, kappa, V domains shown) VH: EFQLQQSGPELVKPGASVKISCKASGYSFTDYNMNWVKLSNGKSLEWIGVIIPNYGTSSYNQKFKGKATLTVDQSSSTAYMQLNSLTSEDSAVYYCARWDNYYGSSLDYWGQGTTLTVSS VL: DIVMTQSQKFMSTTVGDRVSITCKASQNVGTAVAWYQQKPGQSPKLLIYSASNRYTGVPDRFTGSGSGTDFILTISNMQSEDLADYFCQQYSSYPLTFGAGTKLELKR: 0.13

Count: 2. Required value per item: OD450.
1. S009-F8-29.1 (antibody, human IgG1, kappa, V domains shown) VH: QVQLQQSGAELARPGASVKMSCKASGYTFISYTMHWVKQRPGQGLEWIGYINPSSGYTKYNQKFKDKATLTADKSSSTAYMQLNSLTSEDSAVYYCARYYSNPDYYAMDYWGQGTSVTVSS VL: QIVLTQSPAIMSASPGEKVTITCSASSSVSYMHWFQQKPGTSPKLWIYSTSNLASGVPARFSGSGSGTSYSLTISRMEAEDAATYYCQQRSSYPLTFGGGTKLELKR
2. S009-F8-15.19 (antibody, human IgG1, kappa, V domains shown) VH: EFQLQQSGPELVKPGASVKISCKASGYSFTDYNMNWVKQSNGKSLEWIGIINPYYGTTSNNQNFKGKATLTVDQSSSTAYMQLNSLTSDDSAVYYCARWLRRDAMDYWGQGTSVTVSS VL: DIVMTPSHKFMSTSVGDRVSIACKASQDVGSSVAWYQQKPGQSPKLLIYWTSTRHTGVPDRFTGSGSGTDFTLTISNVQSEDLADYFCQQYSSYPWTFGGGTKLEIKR

Result:
[0.04, 0.05]

Go through the items and report each one's OD450.
1. S009-F8-31.22 (antibody, human IgG1, kappa, V domains shown) VH: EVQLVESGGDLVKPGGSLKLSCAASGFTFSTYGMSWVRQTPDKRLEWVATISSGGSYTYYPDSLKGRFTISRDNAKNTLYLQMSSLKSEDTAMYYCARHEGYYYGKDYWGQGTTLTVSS VL: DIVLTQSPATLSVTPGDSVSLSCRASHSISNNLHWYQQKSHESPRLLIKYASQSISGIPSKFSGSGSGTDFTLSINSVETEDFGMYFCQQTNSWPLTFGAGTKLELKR
2. S009-F8-33.12 (antibody, human IgG1, kappa, V domains shown) VH: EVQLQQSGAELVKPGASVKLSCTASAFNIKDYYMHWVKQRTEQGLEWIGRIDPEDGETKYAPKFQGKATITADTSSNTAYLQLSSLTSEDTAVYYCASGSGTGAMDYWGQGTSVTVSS VL: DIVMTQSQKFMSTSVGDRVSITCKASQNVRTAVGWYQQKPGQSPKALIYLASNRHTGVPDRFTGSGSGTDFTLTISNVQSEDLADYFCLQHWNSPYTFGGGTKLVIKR
3. S009-F8-27.1 (antibody, human IgG1, kappa, V domains shown) VH: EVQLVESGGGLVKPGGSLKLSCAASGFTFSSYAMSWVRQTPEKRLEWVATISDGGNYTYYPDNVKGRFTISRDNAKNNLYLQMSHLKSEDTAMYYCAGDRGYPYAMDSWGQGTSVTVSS VL: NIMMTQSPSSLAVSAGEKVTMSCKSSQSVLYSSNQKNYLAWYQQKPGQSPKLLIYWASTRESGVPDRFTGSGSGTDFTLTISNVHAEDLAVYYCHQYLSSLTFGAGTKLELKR
4. S009-F8-28.23 (antibody, human IgG1, kappa, V domains shown) VH: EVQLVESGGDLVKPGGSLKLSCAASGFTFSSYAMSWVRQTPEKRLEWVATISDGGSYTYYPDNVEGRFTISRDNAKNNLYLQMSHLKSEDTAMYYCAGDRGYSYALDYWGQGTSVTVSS VL: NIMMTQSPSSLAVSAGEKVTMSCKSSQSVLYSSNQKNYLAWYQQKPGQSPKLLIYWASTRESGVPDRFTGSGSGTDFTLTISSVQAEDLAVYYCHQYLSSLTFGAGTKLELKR
5. S009-F8-32.3 (antibody, human IgG1, kappa, V domains shown) VH: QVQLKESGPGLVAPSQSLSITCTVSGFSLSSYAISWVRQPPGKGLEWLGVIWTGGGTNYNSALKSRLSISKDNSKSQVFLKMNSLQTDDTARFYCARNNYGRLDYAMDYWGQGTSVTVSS VL: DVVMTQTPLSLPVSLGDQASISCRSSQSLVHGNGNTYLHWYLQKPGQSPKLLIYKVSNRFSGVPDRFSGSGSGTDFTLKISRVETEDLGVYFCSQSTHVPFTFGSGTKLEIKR

Result:
[0.8, 0.43, 0.04, 0.04, 0.42]
